# test summary: Plasma CX157 concentration and pharmacokinetics
# Assay type: in vivo, human
# experimental context: male, human, plasma, po
quantity measured: half-life (h)
Quick note: give the figure in h, leave out the unit.

Q: Entry under review: O=S1(=O)c2ccc(F)cc2Oc2cc(OCC(F)(F)F)ccc21 . Reported half-life?
Ans: 6

---

# test summary: Plasma CX157 concentration and pharmacokinetics
# Type: in vivo, human
# experimental context: male, human, plasma, oral, 60 mg, Average plasma CX157, single dose 60 mg, n = 3; 2 h
quantity measured: concentration at 2 h (ng/mL)
API: value field is a number in ng/mL; no unit string.

Q: Look up concentration at 2 h: O=S1(=O)c2ccc(F)cc2Oc2cc(OCC(F)(F)F)ccc21 [CX157]
Ans: 46.8

---

# test summary: Plasma CX157 concentration and pharmacokinetics
# Format: in vivo, human
# experimental context: male, human, plasma, oral, 40 mg, Average plasma CX157, multi-dose 40 mg BID, n = 3; 5 h
quantity measured: concentration at 5 h (ng/mL)
Give the quantity in ng/mL, number only.

Q: State the recorded concentration at 5 h for this entry: O=S1(=O)c2ccc(F)cc2Oc2cc(OCC(F)(F)F)ccc21
Ans: 34.1

---

# test summary: Plasma CX157 concentration and pharmacokinetics
# Format: in vivo, human
# experimental context: male, human, plasma, oral, 80 mg, Average plasma CX157, single dose 80 mg, n = 4; 2 h
quantity measured: concentration at 2 h (ng/mL)
Response body: numeric value in ng/mL, unit text excluded.

Q: For the compound shown here, O=S1(=O)c2ccc(F)cc2Oc2cc(OCC(F)(F)F)ccc21 , give the reported concentration at 2 h.
Ans: 72.3

---

# test summary: Plasma CX157 concentration and pharmacokinetics
# Format: in vivo, human
# experimental context: male, human, plasma, oral, 60 mg, Average plasma CX157, single dose 60 mg, n = 3; 8 h
quantity measured: concentration at 8 h

Q: concentration at 8 h for O=S1(=O)c2ccc(F)cc2Oc2cc(OCC(F)(F)F)ccc21 [CX157] ?
Ans: 23.4 ng/mL

---

# test summary: Plasma CX157 concentration and pharmacokinetics
# Assay type: in vivo, human
# experimental context: male, human, plasma, oral, 60 mg, Average plasma CX157, single dose 60 mg, n = 3; 12 h
quantity measured: concentration at 12 h (ng/mL)
Record the value in ng/mL, omitting the unit from your answer.

Q: Please give the measured concentration at 12 h for this molecule: O=S1(=O)c2ccc(F)cc2Oc2cc(OCC(F)(F)F)ccc21
Ans: 17.6

---

# test summary: Plasma CX157 concentration and pharmacokinetics
# Format: in vivo, human
# experimental context: male, human, plasma, oral, 20 mg, Average plasma CX157, single dose 20 mg, n = 2; 12 h
quantity measured: concentration at 12 h

Q: Report concentration at 12 h for O=S1(=O)c2ccc(F)cc2Oc2cc(OCC(F)(F)F)ccc21 [CX157] please.
Ans: 12.4 ng/mL

---

# target system: UniProtKB P21397
# Sequence (P21397 1-527): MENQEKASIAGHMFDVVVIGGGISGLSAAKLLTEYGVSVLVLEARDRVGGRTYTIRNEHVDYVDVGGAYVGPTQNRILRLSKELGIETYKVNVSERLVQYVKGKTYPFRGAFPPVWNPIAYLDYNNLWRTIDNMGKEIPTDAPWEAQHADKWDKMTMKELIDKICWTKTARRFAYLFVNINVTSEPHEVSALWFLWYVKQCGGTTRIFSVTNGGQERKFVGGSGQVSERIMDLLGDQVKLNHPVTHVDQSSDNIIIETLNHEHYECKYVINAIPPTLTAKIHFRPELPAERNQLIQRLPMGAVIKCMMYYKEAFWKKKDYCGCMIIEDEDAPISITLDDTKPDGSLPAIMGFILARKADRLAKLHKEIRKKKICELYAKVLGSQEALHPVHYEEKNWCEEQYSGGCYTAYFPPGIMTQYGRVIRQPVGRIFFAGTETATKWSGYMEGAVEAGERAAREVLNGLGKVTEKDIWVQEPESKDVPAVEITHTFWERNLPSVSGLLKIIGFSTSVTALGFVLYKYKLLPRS
# test summary: Emax model of brain MAO-A inhibition vs plasma CX157 concentration
quantity measured: pEC50
Just so you know, pEC50 here is -log10 of the concentration in molar units; reply with that number alone.

Q: Given the molecule O=S1(=O)c2ccc(F)cc2Oc2cc(OCC(F)(F)F)ccc21 [CX157] , what is its reported pEC50?
Ans: 7.26

---

# test summary: Plasma CX157 concentration and pharmacokinetics
# Assay type: in vivo, human
# experimental context: male, human, plasma, oral, 20 mg, Average plasma CX157, single dose 20 mg, n = 2; 5 h
quantity measured: concentration at 5 h (ng/mL)
Give the value in ng/mL but do not write ng/mL after it.

Q: Recorded concentration at 5 h for O=S1(=O)c2ccc(F)cc2Oc2cc(OCC(F)(F)F)ccc21 , please?
Ans: 18.8

---

# test summary: Plasma CX157 concentration and pharmacokinetics
# Assay type: in vivo, human
# experimental context: male, human, plasma, oral, 40 mg, Average plasma CX157, multi-dose 40 mg BID, n = 3; 8 h
quantity measured: concentration at 8 h (ng/mL)
Lab book: enter the figure in ng/mL, no units written.

Q: I would be grateful if you could share the reported concentration at 8 h for O=S1(=O)c2ccc(F)cc2Oc2cc(OCC(F)(F)F)ccc21 .
Ans: 32.2

---

# test summary: Plasma CX157 concentration and pharmacokinetics
# Assay type: in vivo, human
# experimental context: male, human, plasma, oral, 80 mg, Average plasma CX157, single dose 80 mg, n = 4; 8 h
quantity measured: concentration at 8 h

Q: Would you mind telling me what concentration at 8 h value was observed for O=S1(=O)c2ccc(F)cc2Oc2cc(OCC(F)(F)F)ccc21 ?
Ans: 30.4 ng/mL

---

# test summary: Plasma CX157 concentration and pharmacokinetics
# Format: in vivo, human
# experimental context: male, human, plasma, oral, 40 mg, Average plasma CX157, multi-dose 40 mg BID, n = 3; 12 h
quantity measured: concentration at 12 h (ng/mL)
Unit ng/mL implied. Number only.

Q: Find the recorded concentration at 12 h belonging to O=S1(=O)c2ccc(F)cc2Oc2cc(OCC(F)(F)F)ccc21 and report it.
Ans: 23.1
